# RUN_CONDITIONS: in isopropanol, 298.15 K
READOUT_KIND: solubility (mole fraction)
Answers are plain numbers.

Q: Reported solubility (mole fraction) for CN1CCN(c2c(F)cc3c(=O)c(C(=O)O)cn4c3c2OCN4C)CC1 : what is it?
A: 9.22e-05

----------
# RUN_CONDITIONS: in tert-amyl alcohol, 318.15 K
READOUT_KIND: solubility (mole fraction)
Numbers only.

Q: Recorded solubility (mole fraction) for CN1CCN(c2c(F)cc3c(=O)c(C(=O)O)cn4c3c2OCN4C)CC1 , please?
A: 0.00024

----------
# RUN_CONDITIONS: in acetonitrile, 318.15 K
READOUT_KIND: solubility (mole fraction)

Q: What measured solubility (mole fraction) goes with CN1CCN(c2c(F)cc3c(=O)c(C(=O)O)cn4c3c2OCN4C)CC1 ?
A: 0.000422

----------
# RUN_CONDITIONS: in n-butanol, 318.15 K
READOUT_KIND: solubility (mole fraction)

Q: For the molecule shown here, CN1CCN(c2c(F)cc3c(=O)c(C(=O)O)cn4c3c2OCN4C)CC1 , give the reported solubility (mole fraction).
A: 0.000316

----------
# RUN_CONDITIONS: in ethyl acetate, 298.15 K
READOUT_KIND: solubility (mole fraction)

Q: For the compound shown here, CN1CCN(c2c(F)cc3c(=O)c(C(=O)O)cn4c3c2OCN4C)CC1 , give the reported solubility (mole fraction).
A: 0.000226

----------
# RUN_CONDITIONS: in acetonitrile, 298.15 K
READOUT_KIND: solubility (mole fraction)
Give bare numbers.

Q: What measured solubility (mole fraction) goes with CN1CCN(c2c(F)cc3c(=O)c(C(=O)O)cn4c3c2OCN4C)CC1 ?
A: 0.000213

----------
# RUN_CONDITIONS: in acetonitrile, 283.15 K
READOUT_KIND: solubility (mole fraction)
Numbers only.

Q: Using the record for CN1CCN(c2c(F)cc3c(=O)c(C(=O)O)cn4c3c2OCN4C)CC1 , report its solubility (mole fraction).
A: 0.000122

----------
# RUN_CONDITIONS: in acetone, 323.15 K
READOUT_KIND: solubility (mole fraction)
Numbers only.

Q: Could you share which solubility (mole fraction) value was measured for CN1CCN(c2c(F)cc3c(=O)c(C(=O)O)cn4c3c2OCN4C)CC1 ?
A: 0.000796

----------
# RUN_CONDITIONS: in tert-amyl alcohol, 313.15 K
READOUT_KIND: solubility (mole fraction)
Numbers only.

Q: I am curious: what solubility (mole fraction) value has been reported for CN1CCN(c2c(F)cc3c(=O)c(C(=O)O)cn4c3c2OCN4C)CC1 ?
A: 0.000202

----------
# RUN_CONDITIONS: in ethanol, 323.15 K
READOUT_KIND: solubility (mole fraction)
One number for each entry.

Q: Need solubility (mole fraction) of CN1CCN(c2c(F)cc3c(=O)c(C(=O)O)cn4c3c2OCN4C)CC1 , thanks.
A: 0.000326

----------
# RUN_CONDITIONS: in methanol, 308.15 K
READOUT_KIND: solubility (mole fraction)
Answers are plain numbers.

Q: What does the data say about its solubility (mole fraction)? Entry: CN1CCN(c2c(F)cc3c(=O)c(C(=O)O)cn4c3c2OCN4C)CC1
A: 0.000295

----------
# RUN_CONDITIONS: in isopropanol, 303.15 K
READOUT_KIND: solubility (mole fraction)
One number for each entry.

Q: solubility (mole fraction) lookup needed for CN1CCN(c2c(F)cc3c(=O)c(C(=O)O)cn4c3c2OCN4C)CC1 , thanks.
A: 0.000107
